Taken from the supplement of paper PMC12042874.

Test: amyloid nucleation score (Sup35N fusion, yeast selection) (log enrichment); library NNK2; higher = more nucleation; inactive = no reads after selection;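 further: zero at mode of non-aggregating sequences after 7 days selection at 30°C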
Recorded Endpoint: amyloid nucleation score

Record excerpt, results attached:
TVNFYKRWSDCQLMSFIVRV = inactive
WRRFRFLLPWSLRPMS = inactive
RAFYLVTSPDFYFCRILGAT = inactive
LTDVYMVI = -0.395

# ---- query sequence ----
Please give the measured amyloid nucleation score for this sequence: LKLYPGIFIICVRTMDFVFW
inactive
